# Tested System: human IL-6 (mature hIL-6) (human, UniProt P05231 30-212)
# Sequence (P05231 30-212): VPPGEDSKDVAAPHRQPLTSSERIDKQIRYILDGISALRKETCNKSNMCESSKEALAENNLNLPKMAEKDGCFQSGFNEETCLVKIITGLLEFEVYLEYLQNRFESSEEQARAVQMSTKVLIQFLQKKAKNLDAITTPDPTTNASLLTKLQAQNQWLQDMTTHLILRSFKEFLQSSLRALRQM
# Protocol Text: cell-based or functional assay
Below, each entry is listed with its recorded IC 50 (nM), reporter gene assay, 1% HSA.
Property Label: IC 50 (nM), reporter gene assay, 1% HSA

>>> result("Compound 3 (VHH, Chem. 24 (C16 diacid substituent) on Cys in position 4 and on Cys in position 6 of the extension (SEQ ID NO: 72); found mass includes position 1 Gln to pyroGlu formation) VHH: QLQLVESGGGWVQPGGSLQLSCTTSGRRFSEYAVGWFRQAPGQEREFVADIGEQAENTWYAHSVLGRFTISRDEAKNTVYLQMDSLKPEDTAVYYCAADKYGVGGNAQGYYDSWGQGTQVTVSS")
"0.029 nM"
>>> result("Compound 8 (VHH, Chem. 24 (C16 diacid substituent) on Cys in position 4 and on Cys in position 6 of the extension (SEQ ID NO: 72), Polypeptide derivative; extension E2 at the C-terminus of the VHH; also called VHH_1.5-E2 with 2x Chem. 24) VHH: EVQLVESGGGLVQPGGSLQLSCTTSGRKFDEYAVGWFRQGPGKEREFVADIGENAENTWYAESVLGRFTISRDDAKNTVYLQMDSLKPEDTAVYYCAADKYGVGGNAQGYYDSWGQGTQVTVSS")
"0.017 nM"
>>> result("Compound 1 (VHH, Chem. 24 (C16 diacid substituent) on Cys in position 4 and on Cys in position 6 of the extension (SEQ ID NO: 72), Polypeptide derivative; extension E2 at the C-terminus of the VHH; also called VHH_1.12-E2 with 2x Chem. 24) VHH: QLQLVESGGGWVQPGGSLQLSCTTSGRTFSSYAVGWFRQAPGQEREFVADIGENADNTWYAHSVKGRFTISRDNAKNTVYLQMDSLKPEDTAVYYCAADSYGVGGGAQGYYDSWGQGTQVTVSS")
"0.06 nM"
>>> result("Polypeptide_47 (VHH, VHH_1.15 with C-terminal His tag extension E1; also called [VHH_1.15]-E1) VHH: QLQLVESGGGWVQPGGSLKLSCTTSGRRFSEYAVGWFRQAPGKEREFVADIGEQAENTWYAHSVLGRFTISRDEAKNTVYLQMNSLKPEDTAVYYCAADKYGVGGNAQGYYDSWGQGTQVTVSS")
"0.01 nM"
>>> result("Polypeptide_18 (VHH, VHH_1.16 with C-terminal His tag extension E1; also called [VHH_1.16]-E1) VHH: EVQLVESGGGLVQPGGSLRLSCAASGFTFSNYWMYWVRQAPGKGLEWVSGINTGGSTPDYADSVKGRFAISRDNAKNTLYLQMNSLRPEDTAVYYCAADTPRVFRLDHYSPLGQGTQVTVSS")
"0.02 nM"
>>> result("Compound 6 (VHH, Chem. 24 (C16 diacid substituent) on Cys in position 4 and on Cys in position 6 of the extension (SEQ ID NO: 72), Polypeptide derivative; extension E2 at the C-terminus of the VHH; also called VHH_1.3-E2 with 2x Chem. 24) VHH: EVQLVESGGGLVQPGGSLQLSCTTSGRRFSEYAVGWFRQGPGKEREFVADIGEQAENTWYAHSVLGRFTISRDDAKNTVYLQMDSLKPEDTAVYYCAADKYGVGGNAQGYYDSWGQGTQVTVSS")
"0.016 nM"
>>> result("Compound 12 (VHH, Chem. 24 (C16 diacid substituent) on Cys in position 4 and on Cys in position 6 of the extension (SEQ ID NO: 72), Polypeptide derivative; extension E2 at the C-terminus of the VHH; also called VHH_1.17-E2 with 2x Chem. 24) VHH: EVQLVESGGGLVQPGGSLQLSCAASGFTFSNYWMYWVRQAPGQGLEWVSGINTGGSTPDYADSVKGRFAISRDNAKNTLYLQMDSLRPEDTAVYYCAADTPRVFRLDHYSPLGQGTQVTVSS")
"0.021 nM"
